- Target: ΔF508 CFTR (Homo sapiens, UniProt P13569, DEL508-508)
- Sequence (P13569 with tags, fused parts or gaps DEL508-508): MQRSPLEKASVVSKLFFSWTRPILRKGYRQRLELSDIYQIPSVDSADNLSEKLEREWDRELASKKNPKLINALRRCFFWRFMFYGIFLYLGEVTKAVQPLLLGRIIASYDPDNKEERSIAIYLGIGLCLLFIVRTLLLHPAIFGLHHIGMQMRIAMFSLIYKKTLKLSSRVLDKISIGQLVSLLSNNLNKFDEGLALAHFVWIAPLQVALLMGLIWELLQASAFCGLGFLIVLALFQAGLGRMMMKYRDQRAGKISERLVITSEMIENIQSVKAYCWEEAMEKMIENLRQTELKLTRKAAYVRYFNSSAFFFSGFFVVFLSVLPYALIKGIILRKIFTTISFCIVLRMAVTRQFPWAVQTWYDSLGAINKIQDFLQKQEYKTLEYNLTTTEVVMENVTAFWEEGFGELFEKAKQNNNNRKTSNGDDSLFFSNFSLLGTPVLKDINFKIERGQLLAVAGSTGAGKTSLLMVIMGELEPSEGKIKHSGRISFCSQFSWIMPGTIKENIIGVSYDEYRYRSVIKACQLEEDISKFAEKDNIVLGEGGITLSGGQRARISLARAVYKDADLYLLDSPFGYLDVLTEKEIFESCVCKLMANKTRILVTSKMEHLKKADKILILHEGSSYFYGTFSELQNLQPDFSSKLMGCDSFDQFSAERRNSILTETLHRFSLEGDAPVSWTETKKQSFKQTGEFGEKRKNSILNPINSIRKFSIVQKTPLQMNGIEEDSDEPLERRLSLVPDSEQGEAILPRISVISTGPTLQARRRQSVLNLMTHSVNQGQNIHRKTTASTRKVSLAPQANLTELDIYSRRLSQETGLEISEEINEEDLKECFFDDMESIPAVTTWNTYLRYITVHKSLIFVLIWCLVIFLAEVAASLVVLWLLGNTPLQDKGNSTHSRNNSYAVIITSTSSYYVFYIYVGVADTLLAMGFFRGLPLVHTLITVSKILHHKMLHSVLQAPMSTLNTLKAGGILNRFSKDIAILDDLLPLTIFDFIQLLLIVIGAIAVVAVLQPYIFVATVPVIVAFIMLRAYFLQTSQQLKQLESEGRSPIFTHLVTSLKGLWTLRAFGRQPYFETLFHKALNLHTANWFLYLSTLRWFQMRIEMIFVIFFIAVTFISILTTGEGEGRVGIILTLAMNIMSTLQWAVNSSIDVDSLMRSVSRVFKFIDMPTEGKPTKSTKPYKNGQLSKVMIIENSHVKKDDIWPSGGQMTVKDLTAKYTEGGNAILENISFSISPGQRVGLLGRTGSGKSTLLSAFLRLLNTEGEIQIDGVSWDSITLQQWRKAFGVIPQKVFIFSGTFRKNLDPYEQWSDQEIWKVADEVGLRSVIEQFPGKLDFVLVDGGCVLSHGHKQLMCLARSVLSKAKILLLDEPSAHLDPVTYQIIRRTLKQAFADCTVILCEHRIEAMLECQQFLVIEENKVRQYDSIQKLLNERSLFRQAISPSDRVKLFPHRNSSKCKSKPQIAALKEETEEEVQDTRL
- Assay Text: TECC assay, FRT-CFTR ΔF508 protocol
- Condition Details: FRT cells stably transfected with ΔF508 CFTR, 3 μM VX809 24 hours, increase in transepithelial conductance (Gt), high expression cells
Provide the recorded EC50 for the entries that follow.
Respond with a number, then the unit of measure.

Input line: Find EC50 for CC(O)(CNC(=O)c1ncc(S(=O)(=O)c2ccc(OC(F)(F)F)cc2)cc1N)C(F)(F)F (stereo not shown) on ΔF508 CFTR (Homo sapiens, UniProt P13569, DEL508-508) and write it down.
Output line: 0.0701 µM

Input line: Find EC50 for `Nc1cc(S(=O)(=O)c2ccc(F)cc2)cnc1C(=O)NC[C@@H](O)C(F)(F)F` on ΔF508 CFTR (Homo sapiens, UniProt P13569, DEL508-508) and write it down.
Output line: 0.0632 µM

Input line: Find EC50 for `CC(C)(O)CNC(=O)c1ncc(S(=O)(=O)c2ccc(OC(F)(F)F)cc2)cc1N` on ΔF508 CFTR (Homo sapiens, UniProt P13569, DEL508-508) and write it down.
Output line: 0.18 µM

Input line: Find EC50 for `Nc1cc(S(=O)(=O)c2ccc(OC(F)(F)F)cc2)cnc1C(=O)NC[C@@H](O)C(F)(F)F` on ΔF508 CFTR (Homo sapiens, UniProt P13569, DEL508-508) and write it down.
Output line: 0.0104 µM
